system: Staphylococcus aureus; assay: Antibacterial activity against Staphylococcus aureus ATCC 25923 incubated for 18 to 24 hrs by broth microdilution method; type: functional
Where a SMILES comes first, the peptide text is derived from it.
The molecules listed here are annotated with their MIC.
OBSERVABLE: MIC (µM)

>  <MOLECULE>
CC(C)C[C@H](NC(=O)[C@H](CCCNC(=N)N)NC(=O)[C@H](Cc1c[nH]c2ccccc12)NC(=O)[C@H](CCCNC(=N)N)NC(=O)[C@H](CC(C)C)NC(=O)[C@H](CCCNC(=N)N)NC(=O)[C@H](Cc1c[nH]c2ccccc12)NC(=O)[C@H](CCCNC(=N)N)NC(=O)[C@H](CC(C)C)NC(=O)[C@H](CCCNC(=N)N)NC(=O)[C@@H](N)Cc1c[nH]c2ccccc12)C(=O)N[C@@H](CCCNC(=N)N)C(N)=O (H-WRLRWRLRWRLR-NH2)

>  <TARGET>
Staphylococcus aureus

>  <OBSERVABLE>
MIC

>  <OBSERVED_VALUE>
2

$$$$
>  <MOLECULE>
C[C@@H](O)[C@H](NC(=O)[C@H](CCCNC(=N)N)NC(=O)[C@H](Cc1c[nH]c2ccccc12)NC(=O)[C@H](CCCNC(=N)N)NC(=O)[C@@H](NC(=O)[C@H](CCCNC(=N)N)NC(=O)[C@H](Cc1c[nH]c2ccccc12)NC(=O)[C@H](CCCNC(=N)N)NC(=O)[C@@H](NC(=O)[C@H](CCCNC(=N)N)NC(=O)[C@@H](N)Cc1c[nH]c2ccccc12)[C@@H](C)O)[C@@H](C)O)C(=O)N[C@@H](CCCNC(=N)N)C(N)=O (H-WRTRWRTRWRTR-NH2)

>  <TARGET>
Staphylococcus aureus

>  <OBSERVABLE>
MIC

>  <OBSERVED_VALUE>
8

$$$$
>  <MOLECULE>
CC(C)C[C@H](NC(=O)[C@H](CCCNC(=N)N)NC(=O)[C@H](CCCCN)NC(=O)[C@H](CCCNC(=N)N)NC(=O)[C@@H](NC(=O)[C@H](Cc1c[nH]c2ccccc12)NC(=O)[C@H](CCCCN)NC(=O)[C@H](CCCNC(=N)N)NC(=O)[C@H](CC(C)C)NC(=O)[C@H](Cc1c[nH]c2ccccc12)NC(=O)[C@@H](N)CCCNC(=N)N)[C@@H](C)O)C(=O)N[C@@H](CCCCN)C(N)=O (H-RWLRKWTRKRLK-NH2)

>  <TARGET>
Staphylococcus aureus

>  <OBSERVABLE>
MIC

>  <OBSERVED_VALUE>
32

$$$$
>  <MOLECULE>
CC(C)C[C@H](NC(=O)[C@H](CCCNC(=N)N)NC(=O)[C@H](CCCCN)NC(=O)[C@H](Cc1c[nH]c2ccccc12)NC(=O)[C@@H](NC(=O)[C@H](CCCCN)NC(=O)[C@H](CCCCN)NC(=O)[C@H](Cc1c[nH]c2ccccc12)NC(=O)[C@H](CC(C)C)NC(=O)[C@H](CCCNC(=N)N)NC(=O)[C@@H](N)CCCNC(=N)N)[C@@H](C)O)C(=O)N[C@@H](Cc1c[nH]c2ccccc12)C(N)=O (H-RRLWKKTWKRLW-NH2)

>  <TARGET>
Staphylococcus aureus

>  <OBSERVABLE>
MIC

>  <OBSERVED_VALUE>
16

$$$$
>  <MOLECULE>
CC(C)C[C@H](NC(=O)[C@H](CCCNC(=N)N)NC(=O)[C@H](Cc1c[nH]c2ccccc12)NC(=O)[C@H](CCCNC(=N)N)NC(=O)[C@@H](NC(=O)[C@H](Cc1c[nH]c2ccccc12)NC(=O)[C@H](Cc1c[nH]c2ccccc12)NC(=O)[C@H](CCCNC(=N)N)NC(=O)[C@H](CC(C)C)NC(=O)[C@H](CCCNC(=N)N)NC(=O)[C@@H](N)CCCNC(=N)N)[C@@H](C)O)C(=O)N[C@@H](CCCCN)C(N)=O (H-RRLRWWTRWRLK-NH2)

>  <TARGET>
Staphylococcus aureus

>  <OBSERVABLE>
MIC

>  <OBSERVED_VALUE>
8

$$$$
>  <MOLECULE>
CC(C)C[C@H](NC(=O)[C@H](CCCNC(=N)N)NC(=O)[C@@H](NC(=O)[C@H](CCCNC(=N)N)NC(=O)[C@@H](NC(=O)[C@H](CCCCN)NC(=O)[C@@H](NC(=O)[C@H](CCCNC(=N)N)NC(=O)[C@H](CC(C)C)NC(=O)[C@H](CCCNC(=N)N)NC(=O)[C@@H](N)C(C)C)C(C)C)[C@@H](C)O)C(C)C)C(=O)N[C@@H](CCCCN)C(N)=O (H-VRLRVKTRVRLK-NH2)

>  <TARGET>
Staphylococcus aureus

>  <OBSERVABLE>
MIC

>  <OBSERVED_VALUE>
64

$$$$
>  <MOLECULE>
CC(C)[C@H](NC(=O)[C@H](CCCNC(=N)N)NC(=O)[C@H](Cc1c[nH]c2ccccc12)NC(=O)[C@H](CCCNC(=N)N)NC(=O)[C@@H](NC(=O)[C@H](CCCCN)NC(=O)[C@H](Cc1c[nH]c2ccccc12)NC(=O)[C@H](CCCNC(=N)N)NC(=O)[C@@H](NC(=O)[C@H](CCCNC(=N)N)NC(=O)[C@@H](N)Cc1c[nH]c2ccccc12)C(C)C)C(C)C)C(=O)N[C@@H](CCCCN)C(N)=O (H-WRVRWKVRWRVK-NH2)

>  <TARGET>
Staphylococcus aureus

>  <OBSERVABLE>
MIC

>  <OBSERVED_VALUE>
2

$$$$
>  <MOLECULE>
CC(C)C[C@H](NC(=O)[C@H](CCCNC(=N)N)NC(=O)[C@H](Cc1c[nH]c2ccccc12)NC(=O)[C@H](CCCNC(=N)N)NC(=O)[C@@H](NC(=O)[C@H](CCCNC(=N)N)NC(=O)[C@H](Cc1c[nH]c2ccccc12)NC(=O)[C@H](CCCNC(=N)N)NC(=O)[C@H](CC(C)C)NC(=O)[C@H](CCCNC(=N)N)NC(=O)[C@@H](N)Cc1c[nH]c2ccccc12)[C@@H](C)O)C(=O)N[C@@H](CCCNC(=N)N)C(N)=O (H-WRLRWRTRWRLR-NH2)

>  <TARGET>
Staphylococcus aureus

>  <OBSERVABLE>
MIC

>  <OBSERVED_VALUE>
2

$$$$
>  <MOLECULE>
CC(C)C[C@H](NC(=O)[C@H](CCCNC(=N)N)NC(=O)[C@H](Cc1c[nH]c2ccccc12)NC(=O)[C@H](CCCNC(=N)N)NC(=O)[C@@H](NC(=O)[C@H](Cc1c[nH]c2ccccc12)NC(=O)[C@H](Cc1c[nH]c2ccccc12)NC(=O)[C@H](CCCNC(=N)N)NC(=O)[C@H](CC(C)C)NC(=O)[C@H](Cc1c[nH]c2ccccc12)NC(=O)[C@@H](N)CCCNC(=N)N)[C@@H](C)O)C(=O)N[C@@H](CCCCN)C(N)=O (H-RWLRWWTRWRLK-NH2)

>  <TARGET>
Staphylococcus aureus

>  <OBSERVABLE>
MIC

>  <OBSERVED_VALUE>
2

$$$$
>  <MOLECULE>
CC(C)C[C@H](NC(=O)[C@H](CCCNC(=N)N)NC(=O)[C@H](Cc1c[nH]c2ccccc12)NC(=O)[C@H](CCCNC(=N)N)NC(=O)[C@@H](NC(=O)[C@H](CCCCN)NC(=O)[C@H](Cc1c[nH]c2ccccc12)NC(=O)[C@H](CCCNC(=N)N)NC(=O)[C@H](CC(C)C)NC(=O)[C@H](CCCNC(=N)N)NC(=O)[C@@H](N)CCCNC(=N)N)[C@@H](C)O)C(=O)N[C@@H](CCCCN)C(N)=O (H-RRLRWKTRWRLK-NH2)

>  <TARGET>
Staphylococcus aureus

>  <OBSERVABLE>
MIC

>  <OBSERVED_VALUE>
16

$$$$
>  <MOLECULE>
CCn1cc(C(=O)O)c(=O)c2cc(F)c(N3CCNCC3)cc21

>  <TARGET>
Staphylococcus aureus

>  <OBSERVABLE>
MIC

>  <OBSERVED_VALUE>
2

$$$$
